# credit: patent EP1026165A1

subject_of_test: uPAR (Homo sapiens, UniProt Q03405)
Sequence (Q03405 23-305 limits assumed): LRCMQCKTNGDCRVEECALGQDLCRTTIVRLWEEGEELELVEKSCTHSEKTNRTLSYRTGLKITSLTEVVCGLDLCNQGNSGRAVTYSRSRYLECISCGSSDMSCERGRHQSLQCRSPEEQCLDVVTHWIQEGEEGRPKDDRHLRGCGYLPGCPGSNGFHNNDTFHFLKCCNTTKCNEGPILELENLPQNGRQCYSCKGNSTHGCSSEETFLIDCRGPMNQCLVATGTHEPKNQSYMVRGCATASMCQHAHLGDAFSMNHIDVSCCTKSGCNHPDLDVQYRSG
metric: IC50 (µM)

                                   molecule                      subject_of_test  value_measured
0  CC(C)=C1Oc2cccc(OCc3cccc(CN4CCC(NC(=O)c5ccc(Cl)c(Cl)c5)CC4)c3)c2C1=O [Example 11]  uPAR (Homo sapiens, UniProt Q03405)            1.41
